B1: RAB11B (parent)
chain: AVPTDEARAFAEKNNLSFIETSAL

- Variants of: B1
- assay-method-text: protein stability index of a GFP-peptide fusion (GPS, HEK-293T) (PSI 1-6); higher = more stable;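 further: lentivirally expressed fusions sorted by FACS into six bins by GFP to DsRed ratio, PSI derived from sequencing read proportions per bin multiplied by bin number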
- run-conditions: c terminus: a fixed tail appended
Quick list: protein stability index per entry.
Give the figure by itself; no unit, no explanation.

Example variants with recorded protein stability index:
| sequence-change | protein stability index |
| --- | --- |
| A23P | 2.86 |
| A1D | 2.95 |
| R8G | 3.22 |
| P3E | 3.33 |
| P3H | 2.33 |
| R8I | 2.9 |
| A1L | 2.67 |
| N14S | 2.84 |

Q. So what does the record say about protein stability index for `F10R` ?
A. 2.74

Q. Then `N14A` ?
A. 2.48

Q. Then `K13P` ?
A. 2.12

Hello, the source for this data is the supplement of paper PMC10567573, in case you need it.
